test.name: qHTS assay for cell viability of HEK293 cells (AID 743288); also: % is scaled to controls: 0 for no effect and ±100 for the full control effect; nearly all actives have a fitted effect of over 50% in size
condition.notes: ATP luminescence (CellTiter-Glo), 18 h, active compounds read low
From the text: National Center for Advancing Translational Sciences [NCATS] NIH Chemical Genomics Center [NCGC] U.S. Environmental Protection Agency [EPA] National Institutes of Environmental Health Sciences [NIEHS] National Toxicology Program [NTP] […] The CellTiter-Glo Luminescent Cell Viability Assay (Promega, Madison, WI) is a homogeneous method to determine the number of viable cells in culture based on quantitation of the ATP present, which signals the presence of metabolically active cells. […]
Records with an inconclusive call do not appear.
readout.kind: max response (%)
Just the number in %, nothing appended.

In: Output measured max response for this item: COC(=O)c1c(Cl)c(Cl)c(C(=O)OC)c(Cl)c1Cl
Out: -7.06

In: Output measured max response for this item: Nc1ccc(O)cc1
Out: -8.77

In: Output measured max response for this item: CCCCCCCCCCCC[N+](C)(C)Cc1ccccc1
Out: -18.2

In: Output measured max response for this item: O=C(NO)c1ccccc1
Out: -10.3

In: Output measured max response for this item: CCCC(=O)c1cc(O)c(O)cc1O
Out: -20

In: Output measured max response for this item: Brc1ccccc1-c1ccccc1
Out: -7.8

In: Output measured max response for this item: C1=CC2C3C=CC(C3)C2C1 (configuration not stated)
Out: -14.2

----------
System: HEK293
test.name: Cytotoxic Profiling of Annotated Libraries Using Quantitative High-Throughput Screening (AID 1296008); also: % is scaled to controls: 0 for no effect and ±100 for the full control effect; nearly all actives have a fitted effect of over 60% in size
condition.notes: Five cell lines viability, CellTiter-Glo ATP luminescence, 48-72 h; active compounds read low
Records with an inconclusive call do not appear.
readout.kind: max response (%)
Just the number in %, nothing appended.

In: Output measured max response for this item: N#CSCC(=O)O
Out: 0.303

In: Output measured max response for this item: Nc1nnnn1-c1ccccc1
Out: -1.05

In: Output measured max response for this item: CC(=O)N(c1onc(C)c1C)S(=O)(=O)c1ccc(N)cc1
Out: 4.9

In: Output measured max response for this item: Cc1cc(=O)oc2cc(O[C@@H]3SC[C@@H](O)[C@H](O)[C@H]3O)ccc12
Out: -8.77

In: Output measured max response for this item: CN1C(CSCC(F)(F)F)Nc2cc(Cl)c(S(N)(=O)=O)cc2S1(=O)=O (configuration not stated)
Out: 1.71

In: Output measured max response for this item: Cc1ccc(C(=O)Oc2ccc(C(O)CNC(C)(C)C)cc2OC(=O)c2ccc(C)cc2)cc1 (configuration not stated)
Out: 1.15

In: Output measured max response for this item: CC(C)(C)NCC(O)COc1ccccc1OCC1CCCO1 (configuration not stated)
Out: -1.05

In: Output measured max response for this item: COC(=O)c1c(Cl)c(Cl)c(C(=O)OC)c(Cl)c1Cl
Out: -21.7

In: Output measured max response for this item: COC(=O)C1=CO[C@@H](O)[C@@H]2C(CO)=CC[C@H]12
Out: -25.4

In: Output measured max response for this item: CC(=O)c1cc2ccccc2s1
Out: -8.14

In: Output measured max response for this item: CN1CC(=O)N2[C@H](c3ccc4c(c3)OCO4)c3[nH]c4ccccc4c3C[C@@H]2C1=O
Out: -4.29

In: Output measured max response for this item: Nc1c(NC/C=C\COc2cc(CN3CCCCC3)ccn2)c(=O)c1=O
Out: -20.2

In: Output measured max response for this item: CC(C)(C)C(O)/C=C/c1ccc2c(c1)OCO2 (configuration not stated)
Out: 0.172

In: Output measured max response for this item: O=C(O)c1ccccc1Nc1cc(Cl)ccc1C(=O)O
Out: -2.68

In: Output measured max response for this item: CSCC[C@H](NC(=O)[C@H](Cc1c[nH]c2ccccc12)NC(=O)CCNC(=O)OC(C)(C)C)C(=O)N[C@@H](CC(=O)O)C(=O)N[C@@H](Cc1ccccc1)C(N)=O
Out: 0.664

In: Output measured max response for this item: CCOC(=O)C(=O)CCc1ccccc1
Out: 4.19

In: Output measured max response for this item: CCCC(CCC)(C(=O)OCC)C(=O)OCC
Out: 2.87

In: Output measured max response for this item: CNC[C@H](O)[C@@H](O)[C@H](O)[C@H](O)CO
Out: -0.47

In: Output measured max response for this item: O=C(CS(=O)Cc1ccco1)NC/C=C\COc1cc(CN2CCCCC2)ccn1 (configuration not stated)
Out: 0.0112

In: Output measured max response for this item: C=CC[N+]1([C@H]2C[C@H]3[C@@H]4CC[C@H]5C[C@H](OC(C)=O)[C@@H](N6CCCCC6)C[C@]5(C)[C@H]4CC[C@]3(C)[C@H]2OC(=O)CC)CCCCC1
Out: 0.459

In: Output measured max response for this item: Cc1cc(CCCOc2c(C)cc(-c3noc(C(F)(F)F)n3)cc2C)on1
Out: -24.5

In: Output measured max response for this item: Cc1coc2ccccc2c1=O
Out: 3.92
